# ASSAY TEXT: Compartmental PK model fitted to plasma data of the 400 mg fed cohort
# Assay type: in vivo, healthy volunteers (human)
# ASSAY SETUP: human, plasma, oral, median, compartmental PK parameter, n = 10, read-out: Vss/F
ASSAY READOUT: Vd/F (L)
Please state the figure in L; there is no need to write the unit.

# input Name the reported Vd/F value associated with the compound CC(C)(C)OC(=O)N[C@H]1CCCCC/C=C\[C@@H]2C[C@@]2(C(=O)NS(=O)(=O)C2CC2)NC(=O)[C@@H]2C[C@@H](OC(=O)N3Cc4cccc(F)c4C3)CN2C1=O
# output 2950

====

# ASSAY TEXT: Single ascending dose study, fasted and fed: safety and non-compartmental plasma PK
# Assay type: in vivo, healthy volunteers (human)
# ASSAY SETUP: human, plasma, oral, 200 mg, median; single 200 mg dose, fasting state; plasma; N=8; read-out: T1/2 (converted)
ASSAY READOUT: half-life (min)
Please state the figure in min; there is no need to write the unit.

# input Name the reported half-life value associated with the compound CC(C)(C)OC(=O)N[C@H]1CCCCC/C=C\[C@@H]2C[C@@]2(C(=O)NS(=O)(=O)C2CC2)NC(=O)[C@@H]2C[C@@H](OC(=O)N3Cc4cccc(F)c4C3)CN2C1=O [ITMN-191]
# output 89.4
